Catalogue of pIC50 readings, one per entry.
- tested_on: recombinant eIF4E (Homo sapiens (Human))
- Sequence (P06730 whole entry): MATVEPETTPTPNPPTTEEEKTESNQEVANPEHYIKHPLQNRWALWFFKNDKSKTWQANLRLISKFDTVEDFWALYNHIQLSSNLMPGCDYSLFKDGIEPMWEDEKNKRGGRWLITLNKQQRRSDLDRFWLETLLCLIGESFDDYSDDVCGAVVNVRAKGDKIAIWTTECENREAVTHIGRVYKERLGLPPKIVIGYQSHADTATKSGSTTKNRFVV
- experiment_notes: Fluorescence polarization competition assay for eIF4E binding potency
- assay_context: fluorescence polarization competition, 75 nM recombinant eIF4E, 20 nM EDA-m7GDP-ATTO-550; IC50 class; read-out: elF4E FP
pIC50: −log10 of the molar value.

Task: Fill in reported pIC50 for this entry: `Cc1cc2cc(C#N)c(CN(C)C)c(C#N)c2c(=O)n1CCOc1ccc(Cl)cc1-c1ccnc2c(C(=O)O)csc12`
Result: 6.00 to 7.30

Next:
Task: Fill in reported pIC50 for this entry: `Cc1nc2c(F)cc(S(=O)(=O)N(C)C)c(C#N)c2c(=O)n1CCOc1ccc(Cl)cc1-c1ccnc2c(C(=O)O)csc12`
Result: > 7.30

Task: Fill in reported pIC50 for this entry: `Cc1cc(-c2cc(Cl)ccc2OCCn2c(C)nc3cc(C(F)(F)F)c(C4CN(C)C4)c(C#N)c3c2=O)c2scc(C(=O)O)c2n1`
Result: > 7.30

The reported measurements were obtained from patent US11286268B1.
